test system: Hs578T; experiment: normalised response (% of control), CellTiter-Glo; higher = more viable cells (100 = DMSO, 0 = benzethonium chloride kill control); conditions: incubation time: 72 h

COMPOUND | normalised response, %
CS(=O)(=O)c1ccc(C(=O)Nc2ccc(Cl)c(-c3ccccn3)c2)c(Cl)c1 [Vismodegib] (10000 nM) | 99.5
CN(C)C/C=C/C(=O)Nc1cc2c(Nc3ccc(F)c(Cl)c3)ncnc2cc1O[C@H]1CCOC1 [Afatinib] (1000 nM) | 94.5
Cc1ccc(F)c(NC(=O)Nc2ccc(-c3cccc4[nH]nc(N)c34)cc2)c1 [Linifanib] (1000 nM) | 101
Nc1nc(Cl)nc2c1ncn2[C@H]1C[C@H](O)[C@@H](CO)O1 [Cladribine] (1000 nM) | 102
